- Tested on: PDL-1 signaling
- test name: Luciferase assay (Table 1)
- Format: cell-based
Square brackets hold non-standard residues; d marks the D form. Peptide text beside a SMILES is read from it. * marks the point of attachment. Api = NC1(C(=O)O)CCNCC1; PhAc = O=C(Cc1ccccc1)*; Ac3c = NC1(C(=O)O)CC1; Aib = CC(C)(N)C(=O)O
parameter measured: EC50 (µM)

CC(C)(NC(=O)c1cc(NC(=O)Cc2ccccc2)ccc1CN)C(N)=O [compound 11]    20
NCc1cc(NC(=O)Cc2ccccc2)cc(C(=O)NC2(C(N)=O)CCCC2)c1 [compound 7]    26.1
CNC(=O)C(C)(C)NC(=O)c1cc(CN)cc(NC(=O)Cc2ccc(F)cc2)c1 [compound 19]    20.7
CC(C)(NC(=O)c1cc(CN)cc(NC(=O)Cc2ccc(F)cc2)c1)C(N)=O [Compound No. 2]    0.93
NCc1cc(NC(=O)Cc2ccccc2)cc(C(=O)NC2(C(N)=O)CC2)c1 [compound 3]    12.6
CNC(=O)C(C)(C)NC(=O)c1cc(CN(C)C)cc(NC(=O)Cc2ccc(F)cc2)c1 [compound 18]    21
CC(C)(NC(=O)C1(NC(=O)Cc2ccccc2)CCNCC1)C(N)=O [Compound No. 22] (PhAc-[Api]-[Aib]-NH2)    4.22
NCc1cc(NC(=O)Cc2ccc(F)cc2)cc(C(=O)NC2(C(N)=O)CCC2)c1 [compound 10]    7.06
NCc1cc(NC(=O)Cc2ccccc2)cc(C(=O)NC2(C(N)=O)CCC2)c1 [compound 6]    27.1
CC(C)(NC(=O)c1cc(NC(=O)Cc2ccc(F)cc2)ccc1CN)C(N)=O [compound 12]    14.3
NC(=O)C1(NC(=O)C2(NC(=O)Cc3ccccc3)CCNCC2)CC1 [compound 24] (PhAc-[Api]-[Ac3c]-NH2)    7.73
CC(C)(NC(=O)c1cc(NC(=O)Cc2ccccc2)cc(CN)c1F)C(N)=O [compound 15]    19.3
CC(C)(NC(=O)c1cc(CN)cc(NC(=O)Cc2ccccc2)c1)C(N)=O [Compound No. 1]    0.39

Origin of the recorded values: patent US20240010642A1
